# Target of assay: UniProtKB O14791
# Assay protocol: MultiTox-Fluor Multiplex Cytotoxicity Assay in tet-inducible APOL1 T-REx-HEK293 cells
# Assay type: cell-based
# Details: tet-inducible transgenic APOL1 T-REx-HEK293 cell lines, 50 ng/mL tet, 24 hours, ratio of dead to live cells; read-out: IP50 (nM) (i.e., IC50 for cell proliferation)
Assay endpoint: IC50

[[record]]
compound = "Cc1ccc2c(c1)NC(=O)[C@@]21C[C@@H](c2cn(C)nn2)N[C@@H](C)C1"
reading = "< 50 nM"

[[record]]
compound = "C[C@H]1C[C@]2(C[C@@H](c3cn(C)nn3)N1)C(=O)Nc1ccccc12"
reading = "> 500 nM"

[[record]]
compound = "CCc1ccc2c(c1)[C@]1(C[C@@H](c3cn(C)nn3)N[C@@H](C)C1)OCC2"
reading = "< 50 nM"

[[record]]
compound = "C[C@H]1CC2(C[C@@H](c3cn(C)nn3)N1)OC(C(N)=O)c1cc(Cl)ccc12 (single isomer, unassigned) [Compound 40]"
reading = "50 to 500 nM"

[[record]]
compound = "C[C@H]1C[C@@]2(C[C@@H](c3cn(C)nn3)N1)OCCc1cc(O)ccc12"
reading = "50 to 500 nM"

[[record]]
compound = "C[C@H]1C[C@@]2(C[C@@H](c3cn(C)nn3)N1)OCCc1cc(C(C)(C)O)ccc12"
reading = "50 to 500 nM"

[[record]]
compound = "C[C@H]1C[C@@]2(C[C@@H](c3cn(C)nn3)N1)OCCc1cc(Br)ccc12"
reading = "< 50 nM"

[[record]]
compound = "C[C@H]1C[C@@]2(C[C@@H](c3cn(C)nn3)N1)C(=O)Nc1ccccc12"
reading = "< 50 nM"

[[record]]
compound = "C[C@H]1C[C@@]2(C[C@@H](c3cn(C)nn3)N1)C(=O)Nc1cc(C(F)(F)F)ccc12"
reading = "< 50 nM"

[[record]]
compound = "C[C@H]1C[C@@]2(C[C@@H](c3cn(C)nn3)N1)C(=O)Nc1ccc(Cl)cc12"
reading = "< 50 nM"

[[record]]
compound = "C[C@H]1C[C@@]2(C[C@@H](c3cn(C)nn3)N1)OCCc1cc(C#N)ccc12"
reading = "50 to 500 nM"

[[record]]
compound = "Cc1ccc2c(c1)CCO[C@@]21C[C@@H](c2cn(C)nn2)N[C@@H](C)C1"
reading = "< 50 nM"

[[record]]
compound = "C[C@H]1C[C@@]2(C[C@@H](c3cn(C)nn3)N1)OCC(O)c1ccc(Cl)cc12 (stereo partly shown) [Compound 29]"
reading = "50 to 500 nM"

[[record]]
compound = "C[C@H]1C[C@@]2(C[C@@H](c3cn(C)nn3)N1)OCCc1cc(CO)ccc12"
reading = "> 500 nM"

[[record]]
compound = "CCc1ccc2c(c1)CCO[C@@]21C[C@@H](c2cn(C)nn2)N[C@@H](C)C1"
reading = "< 50 nM"

[[record]]
compound = "C[C@H]1C[C@@]2(C[C@@H](c3cn(C)nn3)N1)OCCc1ccc(Cl)cc12"
reading = "< 50 nM"


###

# Target of assay: APOL1 (Homo sapiens)
# Assay protocol: MultiTox-Fluor Multiplex Cytotoxicity Assay in tet-inducible APOL1 T-REx-HEK293 cells
# Format: cell-based
# Details: tet-inducible transgenic APOL1 T-REx-HEK293 cell lines, 50 ng/mL tet, 24 hours, ratio of dead to live cells; read-out: IP50 (nM) (i.e., IC50 for cell proliferation)
Assay endpoint: IC50

[[record]]
compound = "C[C@H]1C[C@@]2(C[C@@H](c3cn(C)nn3)N1)OCCc1ccc(Cl)c(O)c12 [Compound 2]"
target_of_assay = "APOL1 (Homo sapiens)"
assay_endpoint = "IC50"
reading = "< 50 nM"

[[record]]
compound = "CC1CC2(CC(c3cnn(CCS(C)(=O)=O)c3)N1)OCCc1ccc(Cl)cc12 (centres unmarked) [Compound 24]"
target_of_assay = "APOL1 (Homo sapiens)"
assay_endpoint = "IC50"
reading = "50 to 500 nM"

[[record]]
compound = "C[C@H]1C[C@@]2(C[C@@H](c3cn(C)nn3)N1)OCCc1cccc(O)c12 [Compound 8]"
target_of_assay = "APOL1 (Homo sapiens)"
assay_endpoint = "IC50"
reading = "50 to 500 nM"

[[record]]
compound = "C[C@H]1C[C@@]2(C[C@@H](c3cn(C)nn3)N1)OCCc1ccccc12 [Compound 12]"
target_of_assay = "APOL1 (Homo sapiens)"
assay_endpoint = "IC50"
reading = "< 50 nM"

[[record]]
compound = "C[C@H]1C[C@@]2(C[C@@H](c3cn(C)nn3)N1)OC[C@@H](O)c1cc(C(F)(F)F)ccc12 [Compound 27]"
target_of_assay = "APOL1 (Homo sapiens)"
assay_endpoint = "IC50"
reading = "< 50 nM"

[[record]]
compound = "C[C@H]1C[C@@]2(C[C@@H](c3cn(C)nn3)N1)C(=O)Nc1ccc(C(F)(F)F)cc12 [Compound 37]"
target_of_assay = "APOL1 (Homo sapiens)"
assay_endpoint = "IC50"
reading = "< 50 nM"

[[record]]
compound = "COc1cccc2c1[C@]1(C[C@@H](c3cn(C)nn3)N[C@@H](C)C1)OCC2 [Compound 6]"
target_of_assay = "APOL1 (Homo sapiens)"
assay_endpoint = "IC50"
reading = "> 500 nM"

[[record]]
compound = "COc1ccc2c(c1)CCO[C@@]21C[C@@H](c2cn(C)nn2)N[C@@H](C)C1 [Compound 5]"
target_of_assay = "APOL1 (Homo sapiens)"
assay_endpoint = "IC50"
reading = "< 50 nM"

[[record]]
compound = "C[C@H]1C[C@@]2(C[C@@H](c3cn(C)nn3)N1)OCCc1cc(Cl)ccc12 [Compound 15]"
target_of_assay = "APOL1 (Homo sapiens)"
assay_endpoint = "IC50"
reading = "< 50 nM"

[[record]]
compound = "C[C@H]1C[C@@]2(C[C@@H](c3cn(C)nn3)N1)C(=O)Nc1cc(Cl)ccc12 [Compound 36]"
target_of_assay = "APOL1 (Homo sapiens)"
assay_endpoint = "IC50"
reading = "< 50 nM"

[[record]]
compound = "C[C@H]1CC2(C[C@@H](c3cn(C)nn3)N1)OC(C(N)=O)c1cc(Cl)ccc12 (some centres unmarked) [Compound 39]"
target_of_assay = "APOL1 (Homo sapiens)"
assay_endpoint = "IC50"
reading = "< 50 nM"


###

# Target of assay: UniProt:O14791
# Sequence (O14791 1-398 S342G/I384M): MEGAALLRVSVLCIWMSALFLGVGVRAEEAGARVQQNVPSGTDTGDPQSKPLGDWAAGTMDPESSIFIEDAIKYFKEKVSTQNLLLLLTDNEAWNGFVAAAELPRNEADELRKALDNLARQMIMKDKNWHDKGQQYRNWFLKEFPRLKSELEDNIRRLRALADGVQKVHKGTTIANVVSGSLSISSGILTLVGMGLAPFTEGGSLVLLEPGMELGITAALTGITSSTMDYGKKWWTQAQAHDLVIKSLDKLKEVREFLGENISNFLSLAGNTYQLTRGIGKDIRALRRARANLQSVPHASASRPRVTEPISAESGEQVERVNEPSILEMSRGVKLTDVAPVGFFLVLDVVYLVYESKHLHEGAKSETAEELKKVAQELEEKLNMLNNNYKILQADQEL
# Assay protocol: MultiTox-Fluor Multiplex Cytotoxicity Assay in tet-inducible APOL1 T-REx-HEK293 cells
# Assay type: cell-based
# Details: tet-inducible transgenic APOL1 T-REx-HEK293 cell lines, 50 ng/mL tet, 24 hours, ratio of dead to live cells; read-out: IP50 (nM) (i.e., IC50 for cell proliferation)
The entries below are paired with their reported IC50.
Assay endpoint: IC50

[[record]]
compound_structure_string = "C[C@H]1C[C@@]2(C[C@@H](c3cnn(CCS(C)(=O)=O)c3)N1)OCCc1cc(O)c(Cl)cc12"
target_of_assay = "UniProt:O14791"
reading = "> 500 nM"

[[record]]
compound_structure_string = "Cc1ccc2c(c1)[C@]1(C[C@@H](c3cn(C)nn3)N[C@@H](C)C1)C(=O)N2"
target_of_assay = "UniProt:O14791"
reading = "< 50 nM"

[[record]]
compound_structure_string = "CC(C)c1ccc2c(c1)CCO[C@@]21C[C@@H](c2cn(C)nn2)N[C@@H](C)C1"
target_of_assay = "UniProt:O14791"
reading = "< 50 nM"

[[record]]
compound_structure_string = "C[C@H]1C[C@@]2(C[C@@H](c3cn(C)nn3)N1)OC[C@@H](O)c1cc(Cl)ccc12"
target_of_assay = "UniProt:O14791"
reading = "< 50 nM"

[[record]]
compound_structure_string = "C[C@H]1C[C@@]2(C[C@@H](c3cn(C)nn3)N1)OCCc1ccc(C#N)cc12"
target_of_assay = "UniProt:O14791"
reading = "50 to 500 nM"

[[record]]
compound_structure_string = "C[C@H]1C[C@@]2(C[C@@H](c3cn(C)nn3)N1)OCCc1cc(OS(=O)(=O)C(F)(F)F)ccc12"
target_of_assay = "UniProt:O14791"
reading = "50 to 500 nM"

[[record]]
compound_structure_string = "COC(=O)c1ccc2c(c1)CCO[C@@]21C[C@@H](c2cn(C)nn2)N[C@@H](C)C1"
target_of_assay = "UniProt:O14791"
reading = "> 500 nM"

[[record]]
compound_structure_string = "C[C@H]1C[C@@]2(C[C@@H](c3ccn(CCS(C)(=O)=O)c3)N1)OCCc1ccc(Cl)c(O)c12"
target_of_assay = "UniProt:O14791"
reading = "50 to 500 nM"

